meta.source: a melting point compilation (Tetko et al.; mined from patent text by program, amines drawn as free bases though some values may be those of a salt)

MEASUREMENT_TYPE: melting point

A selection of reference data follows.
1) COC(=O)c1ccc(OCC(O)c2ccc3c(c2)C(C)(C)CCS3)cc1O (stereo not given): 113 to 115 °C
2) N#C/C(=C\c1cc(O)c(O)c(I)c1)C(=O)NCc1ccccc1: 220 °C
3) CC1CCCN(c2ccc([N+](=O)[O-])cc2C(=O)c2ccc(Cl)cc2)C1 (stereo not given): 112 °C
4) O=C(O)C1=Cc2cc3c(cc2OC1C(F)(F)F)OCO3 (stereo not given): 246 to 248 °C
5) CC(=O)OC1CSC(Oc2cncc(-c3cccnc3F)c2)C(OC(C)=O)C1OC(C)=O (stereo not given): 169 to 170 °C

Could you share which melting point value was measured for CCOc1cc2c(Cl)ncnc2cc1OC(C)C ? 104 to 106 °C

Quick one: melting point for Cc1cccc2c(=O)[nH]c(CCCN3CCC[C@@H]3CO)cc12 ? 150 to 151 °C

Recorded melting point for Cc1cnc2c(c1)nc(C)n2-c1ccccc1 , please? 77 to 79 °C

# input compound: CCn1c(-c2ccc(Cl)cc2)nn(C)c1=O ; wanted: its melting point 73 to 75 °C

Query (compound): CCOC(=O)c1cn(-c2cc(OC)c(F)cc2[N+](=O)[O-])c2c(Cl)c(F)c(F)cc2c1=O ; field requested: melting point 244 to 248 °C
